target: Nav1.5/β1 (Homo sapiens); construct: Nav1.5 (UniProt: Q14524.1); expressed in transfected cells; host or cells: Xenopus laevis oocytes (cRNA injection, Nav1.5:β1 2:1 by weight); assay: Two-electrode voltage clamp of Nav1.5/β1 expressed in Xenopus oocytes; type: cell-based; conditions: 20 μM; relative current at 0 mV
Task for the reader: assign each of the following compounds its reported INa I/I0.
In your answer, state the number alone without any accompanying words.

INa I/I0 in this record for CC/C=C\C/C=C\C/C=C\C/C=C\C/C=C\C/C=C\CCC(=O)NCCS(=O)(=O)O : 0.1

// INa I/I0 value for CCCCC/C=C\C/C=C\CCCCCCCC(=O)NCCS(=O)(=O)O : 0.1

Value of INa I/I0 reported for the compound CC/C=C\C/C=C\C/C=C\C/C=C\C/C=C\C/C=C\CCC(=O)NCC(=O)O is 0.7

Lab book: INa I/I0 of CCCCC/C=C\C/C=C\CC/C=C\CCCC(=O)NCCS(=O)(=O)O noted as 0.2

INa I/I0 in this record for CCCCC/C=C\C/C=C\C/C=C\C/C=C\CCCC(=O)NCCS(=O)(=O)O : 0.1

Sample CCCCC/C=C\C/C=C\CC/C=C\CCCC(=O)NCC(=O)O ; INa I/I0 observed: 0.3

Reported INa I/I0 ( CCCCC/C=C\C/C=C\CCCCCCCC(=O)NCC(=O)O ) = 0.3

====

Biological target: Cav1.2/β3/α2δ (Homo sapiens)
Construct: expressed in transfected cells; host or cells: Xenopus laevis oocytes (cRNA injection, Cav1.2:β3:α2δ 2:1:1 by weight)
Test: Two-electrode voltage clamp of Cav1.2/β3/α2δ expressed in Xenopus oocytes (Ba2+ as charge carrier)
Format: cell-based
Conditions: 0.7 μM
Method: Molecular Biology cRNA encoding Kv7.1 (UniProt: P51787), KCNE1 (UniProt: P15382.1), Nav1.5 (UniProt: Q14524.1), Nav β1 (UniProt: […]), Nav β3 (UniProt: […]), Cav1.2 (GenBank: CAA84346), Cav β3 (Uniprot: P54286), Cav β2 (Uniprot: P54288), and Cav α2δ (Uniprot: P13806) were transcribed using the mMessage mMachine T7 kit (Ambion). […] Xenopus laevis oocytes were recorded in the two-electrode voltage clamp (TEVC) configuration. […]
TEST_READOUT: Gmax/Gmax0

// field: Gmax/Gmax0; key: CCCCC/C=C\C/C=C\C/C=C\C/C=C\CCCC(=O)NCCS(=O)(=O)O ; value = 0.9 ± 0.1

Lab book: Gmax/Gmax0 of CC/C=C\C/C=C\C/C=C\C/C=C\C/C=C\C/C=C\CCC(=O)NCCS(=O)(=O)O noted as 1.1 ± 0.1

Input CCCCC/C=C\C/C=C\CCCCCCCC(=O)NCC(=O)O . Output Gmax/Gmax0: 1.1 ± 0.04

Recorded result, CC/C=C\C/C=C\C/C=C\C/C=C\C/C=C\C/C=C\CCC(=O)NCC(=O)O , Gmax/Gmax0: 1.1 ± 0.1

For record CCCCC/C=C\C/C=C\CCCCCCCC(=O)NCCS(=O)(=O)O the listed Gmax/Gmax0 is 0.9 ± 0.02

Briefly, Gmax/Gmax0 measured for CCCCC/C=C\C/C=C\CC/C=C\CCCC(=O)NCC(=O)O : 0.9 ± 0.1

In plain terms, CCCCC/C=C\C/C=C\CC/C=C\CCCC(=O)NCCS(=O)(=O)O has a documented Gmax/Gmax0 of 1.0 ± 0.1

====

target: Nav1.5/β1 (Homo sapiens); construct: Nav1.5 (UniProt: Q14524.1); expressed in transfected cells; host or cells: Xenopus laevis oocytes (cRNA injection, Nav1.5:β1 2:1 by weight); assay: Two-electrode voltage clamp of Nav1.5/β1 expressed in Xenopus oocytes; type: cell-based; settings: 0.7 μM; relative current at 0 mV
TEST_READOUT: INa I/I0
API doc: respond with a numeric literal and nothing else, no unit.

Per the record, CC/C=C\C/C=C\C/C=C\C/C=C\C/C=C\C/C=C\CCC(=O)NCCS(=O)(=O)O has INa I/I0 of 1.0

Value of INa I/I0 reported for the compound CCCCC/C=C\C/C=C\CCCCCCCC(=O)NCCS(=O)(=O)O is 1.0

Looking up CCCCC/C=C\C/C=C\CC/C=C\CCCC(=O)NCCS(=O)(=O)O , I found its INa I/I0 recorded as 1.2

Field INa I/I0 (entry CCCCC/C=C\C/C=C\C/C=C\C/C=C\CCCC(=O)NCCS(=O)(=O)O ) reads 1.0

Record CC/C=C\C/C=C\C/C=C\C/C=C\C/C=C\C/C=C\CCC(=O)NCC(=O)O . Reported INa I/I0: 1.0

Data point: CCCCC/C=C\C/C=C\CC/C=C\CCCC(=O)NCC(=O)O ; INa I/I0 = 1.1

Kindly note the recorded INa I/I0 for CCCCC/C=C\C/C=C\CCCCCCCC(=O)NCC(=O)O , which is 1.0

====

biological target: Cav1.2/β3/α2δ (Homo sapiens, UniProt Q13936); construct: expressed in transfected cells; host or cells: Xenopus laevis oocytes (cRNA injection, Cav1.2:β3:α2δ 2:1:1 by weight); experiment: Two-electrode voltage clamp of Cav1.2/β3/α2δ expressed in Xenopus oocytes (Ba2+ as charge carrier); assay type: cell-based; settings: 2 μM
Sequence (Q13936 1-2138 isoform Q13936-20): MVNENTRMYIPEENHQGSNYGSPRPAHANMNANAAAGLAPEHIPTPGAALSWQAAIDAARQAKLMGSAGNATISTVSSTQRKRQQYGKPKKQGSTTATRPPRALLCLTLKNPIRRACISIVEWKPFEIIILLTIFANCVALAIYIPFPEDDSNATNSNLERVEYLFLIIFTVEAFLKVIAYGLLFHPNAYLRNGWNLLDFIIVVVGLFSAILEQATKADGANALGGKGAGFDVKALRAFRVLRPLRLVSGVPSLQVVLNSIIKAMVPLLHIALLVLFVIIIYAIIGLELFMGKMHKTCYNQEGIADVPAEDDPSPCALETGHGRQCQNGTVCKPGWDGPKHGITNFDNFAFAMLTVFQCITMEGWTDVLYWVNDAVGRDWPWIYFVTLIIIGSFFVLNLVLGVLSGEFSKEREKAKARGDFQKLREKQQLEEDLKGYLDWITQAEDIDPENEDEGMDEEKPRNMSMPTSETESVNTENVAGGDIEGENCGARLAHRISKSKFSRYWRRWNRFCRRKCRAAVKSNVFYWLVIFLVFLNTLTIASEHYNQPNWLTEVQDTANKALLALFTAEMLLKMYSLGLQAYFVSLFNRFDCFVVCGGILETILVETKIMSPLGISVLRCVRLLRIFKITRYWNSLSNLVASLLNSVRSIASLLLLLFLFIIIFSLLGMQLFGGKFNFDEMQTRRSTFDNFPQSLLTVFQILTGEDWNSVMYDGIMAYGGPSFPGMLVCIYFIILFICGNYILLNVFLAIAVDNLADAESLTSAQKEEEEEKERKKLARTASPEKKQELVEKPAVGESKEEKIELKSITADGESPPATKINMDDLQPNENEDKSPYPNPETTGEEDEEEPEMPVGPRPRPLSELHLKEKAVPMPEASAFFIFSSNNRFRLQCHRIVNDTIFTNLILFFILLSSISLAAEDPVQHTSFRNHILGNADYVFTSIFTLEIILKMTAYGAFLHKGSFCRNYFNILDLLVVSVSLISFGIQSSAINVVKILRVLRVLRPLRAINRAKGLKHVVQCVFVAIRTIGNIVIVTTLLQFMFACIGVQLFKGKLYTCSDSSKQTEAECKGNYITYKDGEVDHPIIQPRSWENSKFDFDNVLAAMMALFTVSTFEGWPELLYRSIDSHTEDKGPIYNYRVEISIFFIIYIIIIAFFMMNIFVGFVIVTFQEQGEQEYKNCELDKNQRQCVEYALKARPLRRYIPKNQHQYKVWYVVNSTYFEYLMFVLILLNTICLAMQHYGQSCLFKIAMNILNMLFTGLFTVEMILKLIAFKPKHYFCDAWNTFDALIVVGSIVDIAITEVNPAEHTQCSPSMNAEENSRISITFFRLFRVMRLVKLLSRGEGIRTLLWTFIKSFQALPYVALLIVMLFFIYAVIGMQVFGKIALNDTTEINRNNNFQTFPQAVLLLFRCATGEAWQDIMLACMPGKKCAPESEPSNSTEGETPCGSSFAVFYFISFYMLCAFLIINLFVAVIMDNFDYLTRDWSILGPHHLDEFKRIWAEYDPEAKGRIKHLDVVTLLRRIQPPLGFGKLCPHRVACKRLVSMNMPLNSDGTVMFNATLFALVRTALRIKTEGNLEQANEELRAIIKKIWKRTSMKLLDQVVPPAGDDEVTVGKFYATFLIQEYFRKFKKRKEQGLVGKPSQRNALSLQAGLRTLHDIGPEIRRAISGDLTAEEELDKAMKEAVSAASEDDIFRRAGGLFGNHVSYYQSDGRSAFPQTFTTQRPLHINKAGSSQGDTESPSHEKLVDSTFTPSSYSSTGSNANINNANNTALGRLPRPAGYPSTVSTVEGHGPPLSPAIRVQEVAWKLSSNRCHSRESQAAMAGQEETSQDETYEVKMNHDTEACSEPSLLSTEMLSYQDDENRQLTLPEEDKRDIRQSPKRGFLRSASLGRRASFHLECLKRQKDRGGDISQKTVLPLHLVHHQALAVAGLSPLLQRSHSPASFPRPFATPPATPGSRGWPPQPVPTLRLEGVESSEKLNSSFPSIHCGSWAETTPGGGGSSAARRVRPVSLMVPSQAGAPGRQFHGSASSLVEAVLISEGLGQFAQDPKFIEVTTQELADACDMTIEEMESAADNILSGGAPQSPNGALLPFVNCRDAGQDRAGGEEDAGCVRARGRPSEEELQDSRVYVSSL
Sequence (P54286 whole entry partner): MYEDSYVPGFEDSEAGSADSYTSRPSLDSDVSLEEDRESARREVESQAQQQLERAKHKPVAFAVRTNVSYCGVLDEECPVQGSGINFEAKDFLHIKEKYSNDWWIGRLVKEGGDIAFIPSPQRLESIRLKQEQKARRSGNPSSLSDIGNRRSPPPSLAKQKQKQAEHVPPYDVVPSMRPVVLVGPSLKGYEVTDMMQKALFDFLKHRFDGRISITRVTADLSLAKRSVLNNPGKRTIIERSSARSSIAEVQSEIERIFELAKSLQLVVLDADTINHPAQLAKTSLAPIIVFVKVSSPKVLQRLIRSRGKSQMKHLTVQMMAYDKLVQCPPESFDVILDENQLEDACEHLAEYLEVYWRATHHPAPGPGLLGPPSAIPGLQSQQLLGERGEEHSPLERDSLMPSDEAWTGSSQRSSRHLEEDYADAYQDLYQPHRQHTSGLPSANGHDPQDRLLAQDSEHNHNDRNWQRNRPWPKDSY
Sequence (P13806 27-960 partner): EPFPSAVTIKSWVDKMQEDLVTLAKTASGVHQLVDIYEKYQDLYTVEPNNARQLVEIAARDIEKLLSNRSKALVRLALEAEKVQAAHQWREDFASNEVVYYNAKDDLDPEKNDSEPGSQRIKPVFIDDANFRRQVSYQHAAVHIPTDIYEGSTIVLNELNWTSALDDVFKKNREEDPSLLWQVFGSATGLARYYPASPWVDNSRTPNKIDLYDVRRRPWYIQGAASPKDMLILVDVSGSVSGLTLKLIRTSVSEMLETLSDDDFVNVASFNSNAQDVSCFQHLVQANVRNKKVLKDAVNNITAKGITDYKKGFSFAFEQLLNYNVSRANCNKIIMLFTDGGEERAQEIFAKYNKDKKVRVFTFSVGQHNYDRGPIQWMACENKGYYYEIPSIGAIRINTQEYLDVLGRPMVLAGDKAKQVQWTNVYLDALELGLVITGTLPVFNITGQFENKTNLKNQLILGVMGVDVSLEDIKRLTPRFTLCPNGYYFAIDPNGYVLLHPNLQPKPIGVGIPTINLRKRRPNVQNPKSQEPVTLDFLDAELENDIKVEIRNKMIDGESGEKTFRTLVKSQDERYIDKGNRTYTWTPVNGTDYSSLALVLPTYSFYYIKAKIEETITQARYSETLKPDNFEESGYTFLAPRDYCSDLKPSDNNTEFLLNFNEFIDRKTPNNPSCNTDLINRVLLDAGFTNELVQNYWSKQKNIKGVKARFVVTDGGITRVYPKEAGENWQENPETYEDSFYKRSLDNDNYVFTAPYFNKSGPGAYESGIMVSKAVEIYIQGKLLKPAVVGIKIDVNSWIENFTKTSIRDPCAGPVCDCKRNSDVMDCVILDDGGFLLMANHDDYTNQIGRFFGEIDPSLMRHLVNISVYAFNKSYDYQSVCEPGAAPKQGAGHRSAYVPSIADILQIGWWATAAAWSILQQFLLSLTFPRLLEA
Sequence (P13806 961-1106 partner): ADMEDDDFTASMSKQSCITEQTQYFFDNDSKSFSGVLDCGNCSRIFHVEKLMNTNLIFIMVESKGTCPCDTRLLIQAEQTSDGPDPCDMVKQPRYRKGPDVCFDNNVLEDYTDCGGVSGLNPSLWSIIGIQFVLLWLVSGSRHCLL
Give measured ΔV0.5 (voltage dependence of inactivation) for each item. Keep answers brief.
The response must be a number in mV with no trailing unit.

Result for CCCCC/C=C\C/C=C\C/C=C\C/C=C\CCCC(=O)NCCS(=O)(=O)O , tested on Cav1.2/β3/α2δ (Homo sapiens, UniProt Q13936), ΔV0.5 (voltage dependence of inactivation): 0.2

# ΔV0.5 (voltage dependence of inactivation) measured on Cav1.2/β3/α2δ (Homo sapiens, UniProt Q13936) for item CC/C=C\C/C=C\C/C=C\C/C=C\C/C=C\C/C=C\CCC(=O)NCC(=O)O = 6.1

Entry CC/C=C\C/C=C\C/C=C\C/C=C\C/C=C\C/C=C\CCC(=O)NCCS(=O)(=O)O , Cav1.2/β3/α2δ (Homo sapiens, UniProt Q13936) data, ΔV0.5 (voltage dependence of inactivation) value: 1.7

For CCCCC/C=C\C/C=C\CCCCCCCC(=O)NCCS(=O)(=O)O on Cav1.2/β3/α2δ (Homo sapiens, UniProt Q13936), measured ΔV0.5 (voltage dependence of inactivation) was -0.3

Observed ΔV0.5 (voltage dependence of inactivation), Cav1.2/β3/α2δ (Homo sapiens, UniProt Q13936), CCCCC/C=C\C/C=C\CC/C=C\CCCC(=O)NCCS(=O)(=O)O : 3.7

The compound CCCCC/C=C\C/C=C\CCCCCCCC(=O)NCC(=O)O on Cav1.2/β3/α2δ (Homo sapiens, UniProt Q13936): ΔV0.5 (voltage dependence of inactivation) was -2.9

The observed ΔV0.5 (voltage dependence of inactivation) for CCCCC/C=C\C/C=C\CC/C=C\CCCC(=O)NCC(=O)O when tested with Cav1.2/β3/α2δ (Homo sapiens, UniProt Q13936) stands at -4.3

====

Would you mind telling me the reported Fitted slope factor of conductance vs voltage relationship of each entry?
target: Kv7.1/KCNE1 (Homo sapiens, UniProt P51787); construct: cRNA encoding Kv7.1 (UniProt: P51787), KCNE1 (UniProt: P15382.1); expressed in transfected cells; host or cells: Xenopus laevis oocytes (cRNA injection, Kv7.1:KCNE1 3:1 by weight); assay: Two-electrode voltage clamp of Kv7.1/KCNE1 expressed in Xenopus oocytes; format: cell-based; set-up: unit of the concentration uncertain; conditions: 7 μM
Express the result in mV but write the number alone.

Quick note, Fitted slope factor of conductance vs voltage relationship for CC/C=C\C/C=C\C/C=C\C/C=C\C/C=C\C/C=C\CCC(=O)NCCS(=O)(=O)O landed at 18.1

Lab book: Fitted slope factor of conductance vs voltage relationship of CCCCC/C=C\C/C=C\CC/C=C\CCCC(=O)NCC(=O)O noted as 18.7

Measured Fitted slope factor of conductance vs voltage relationship of CC/C=C\C/C=C\C/C=C\C/C=C\C/C=C\C/C=C\CCC(=O)NCC(=O)O : 17.0

Summary for this molecule, CCCCC/C=C\C/C=C\C/C=C\C/C=C\CCCC(=O)NCCS(=O)(=O)O : Fitted slope factor of conductance vs voltage relationship is 18.2

Value of Fitted slope factor of conductance vs voltage relationship reported for the molecule CCCCC/C=C\C/C=C\CC/C=C\CCCC(=O)NCCS(=O)(=O)O is 18.8

Fitted slope factor of conductance vs voltage relationship for CCCCC/C=C\C/C=C\CCCCCCCC(=O)NCC(=O)O is 20.6

Looking up CCCCC/C=C\C/C=C\CCCCCCCC(=O)NCCS(=O)(=O)O , I see its Fitted slope factor of conductance vs voltage relationship listed as 18.1
